Measured inhibition at 0.2 µM, listed per entry for reference.
# TESTED_SYSTEM: CDK4 (Homo sapiens)
# Construct: endogenous in cells; host or cells: Calu-1
# Sequence (P11802 2-303 limits assumed): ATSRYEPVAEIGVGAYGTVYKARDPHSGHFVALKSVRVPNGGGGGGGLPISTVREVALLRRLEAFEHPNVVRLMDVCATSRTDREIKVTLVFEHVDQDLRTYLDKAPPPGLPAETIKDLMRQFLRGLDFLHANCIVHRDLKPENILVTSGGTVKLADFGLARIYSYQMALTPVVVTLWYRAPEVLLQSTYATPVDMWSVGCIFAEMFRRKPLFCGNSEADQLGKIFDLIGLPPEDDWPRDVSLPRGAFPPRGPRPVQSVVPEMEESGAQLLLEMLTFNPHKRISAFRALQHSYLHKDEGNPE
# Sequence (P24385 whole entry partner): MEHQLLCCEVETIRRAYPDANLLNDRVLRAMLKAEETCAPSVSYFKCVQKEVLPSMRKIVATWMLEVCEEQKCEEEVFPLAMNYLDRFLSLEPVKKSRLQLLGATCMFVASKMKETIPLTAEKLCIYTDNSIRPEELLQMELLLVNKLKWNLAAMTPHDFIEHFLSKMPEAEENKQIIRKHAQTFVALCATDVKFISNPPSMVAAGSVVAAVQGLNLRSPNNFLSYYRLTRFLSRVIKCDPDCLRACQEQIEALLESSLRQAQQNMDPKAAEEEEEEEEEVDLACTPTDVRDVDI
# Sequence (Q16531 2-1140 limits assumed, further chain): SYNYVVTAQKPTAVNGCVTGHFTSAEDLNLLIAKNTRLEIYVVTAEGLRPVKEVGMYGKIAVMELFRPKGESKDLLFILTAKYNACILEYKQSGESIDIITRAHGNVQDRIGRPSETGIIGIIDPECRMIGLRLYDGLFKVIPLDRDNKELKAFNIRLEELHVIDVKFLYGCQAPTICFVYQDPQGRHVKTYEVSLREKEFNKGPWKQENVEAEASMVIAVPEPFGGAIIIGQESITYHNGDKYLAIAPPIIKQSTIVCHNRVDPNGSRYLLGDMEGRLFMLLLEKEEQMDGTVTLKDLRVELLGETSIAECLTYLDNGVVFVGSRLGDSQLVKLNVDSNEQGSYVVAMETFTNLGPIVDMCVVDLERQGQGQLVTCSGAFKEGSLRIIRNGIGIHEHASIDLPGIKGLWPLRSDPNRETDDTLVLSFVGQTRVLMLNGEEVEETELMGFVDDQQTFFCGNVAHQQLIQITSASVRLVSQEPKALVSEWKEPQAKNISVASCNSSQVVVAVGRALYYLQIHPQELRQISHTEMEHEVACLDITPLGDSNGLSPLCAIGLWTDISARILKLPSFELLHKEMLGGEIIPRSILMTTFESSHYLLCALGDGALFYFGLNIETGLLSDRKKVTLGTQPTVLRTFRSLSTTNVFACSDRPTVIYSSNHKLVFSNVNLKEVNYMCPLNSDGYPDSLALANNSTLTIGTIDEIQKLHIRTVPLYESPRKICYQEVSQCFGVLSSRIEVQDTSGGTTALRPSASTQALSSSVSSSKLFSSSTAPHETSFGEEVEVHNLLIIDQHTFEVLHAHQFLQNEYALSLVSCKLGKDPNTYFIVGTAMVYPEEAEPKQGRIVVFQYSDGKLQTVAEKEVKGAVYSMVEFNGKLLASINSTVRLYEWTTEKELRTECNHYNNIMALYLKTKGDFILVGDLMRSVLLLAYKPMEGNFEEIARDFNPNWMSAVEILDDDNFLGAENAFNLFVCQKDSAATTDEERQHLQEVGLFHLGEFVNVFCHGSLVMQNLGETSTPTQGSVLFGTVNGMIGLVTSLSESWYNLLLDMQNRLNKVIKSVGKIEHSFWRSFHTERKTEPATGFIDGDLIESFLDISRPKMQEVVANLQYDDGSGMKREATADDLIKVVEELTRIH
# ASSAY_EXPLANATION: CDK4 percentage degradation in Calu-1 cells (immunoblotting)
# Type: cell-based
# STUDY_CONDITIONS: Calu-1, 16 h, read-out: CDK4 Degradation (200 nM)

- SUBSTANCE_SMILES: "CC(=O)c1c(C)c2cnc(Nc3ccc(N4CCN(C(=O)CCOCCOCCOCCOCCOCCNc5ccc(C)c(C(=O)Nc6nc(C)c(C)s6)c5)CC4)cn3)nc2n(C2CCCC2)c1=O"
  VAL: "< 30%"
- SUBSTANCE_SMILES: "CC(=O)c1c(C)c2cnc(Nc3ccc(N4CCN(CC(=O)NCCOCCOCCOCCOCCOCCNc5ccc(C(=O)Nc6ccc(C)cc6)c(C)c5)CC4)cn3)nc2n(C2CCCC2)c1=O"
  VAL: "< 30%"
- SUBSTANCE_SMILES: "CC(=O)c1c(C)c2cnc(Nc3ccc(N4CCN(CCNCCOCCOCCC(=O)Nc5ccccc5C(=O)Nc5nc(C)c(C)s5)CC4)cn3)nc2n(C2CCCC2)c1=O"
  VAL: "< 30%"
- SUBSTANCE_SMILES: "CC(=O)c1c(C)c2cnc(Nc3ccc(N4CCN(C(=O)CCCCCC(=O)Nc5ccccc5C(=O)Nc5nc(C)c(C)s5)CC4)cn3)nc2n(C2CCCC2)c1=O"
  VAL: "< 30%"
- SUBSTANCE_SMILES: "CC(=O)c1c(C)c2cnc(Nc3ccc(N4CCN(C(=O)CCCCC(=O)Nc5ccccc5C(=O)Nc5nc(C)c(C)s5)CC4)cn3)nc2n(C2CCCC2)c1=O"
  VAL: "< 30%"

Pending compound:
q: Return the recorded inhibition at 0.2 µM value; entry: `CC(=O)c1c(C)c2cnc(Nc3ccc(N4CCN(C(=O)CCOCCOCCOCCOCCOCCC(=O)Nc5ccccc5C(=O)Nc5nc(C)c(C)s5)CC4)cn3)nc2n(C2CCCC2)c1=O`
a: 50 to 80%
